# procedure-details: probe aEGFR binding to arrayed compounds – biochemical, biotinylated probe, 635/667 nm fluorescence, primary screen (AID 1097);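 note: probe is a biotinylated anti-EGFR antibody binding compounds printed on slides; score combines fluorescence near 667 nm and signal to noise of each spot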
# run-conditions: small-molecule microarray, higher = more signal
readout: composite z-score
Answer using only a numeral; do not append any unit.

Observe how each entry below is paired with its result.
C=CC[C@@]1(C(=O)OC)N=C(c2ccc(OCCCO)cc2)O[C@@H]1c1ccccc1CN=[N+]=[N-]    -0.0531
CC(=O)NCCCC[C@@H]1NC(=O)[C@@H]2C[C@H](C(=O)NCCCCCC[N+](C)(C)C)[C@H](c3cccc(OCCO)c3)N2C1=O    -0.115
C=CCOC(=O)[C@@H]1[C@H]2C(=O)O[C@H](c3ccccc3)[C@H](c3ccccc3)N2[C@H](c2ccc(OCCOC(=O)[C@H]3C[C@H]4C(=O)N[C@@H](CC(C)C)C(=O)N4[C@H]3c3cccc(OCCO)c3)cc2)[C@@]12C(=O)Nc1ccc(I)cc12    -0.0769

From here, focus on the item given below.
**Q:** Look up composite z-score of CC(C)C[C@@H]1NC(=O)[C@@H]2C[C@H](C(=O)NCCCCN(C)C)[C@H](c3ccc(O)cc3)N2C1=O and report it.
**A:** -0.218

====

# Tested on: glycogen synthase kinase-3 (GSK3A per assay name; protocol says GSK3B)
# procedure-details: compounds binding glycogen synthase kinase-3 – biochemical, small-molecule microarray, 635 nm fluorescence, GSK3A, primary screen (AID 1103); note: the record names both GSK3A and GSK3B
# run-conditions: fluorescence 635 nm, higher = more signal
Reported composite z-score by item:
Answer using only a numeral; do not append any unit.

Observe how each entry below is paired with its result.
COC(=O)[C@@]1(Cc2ccc(F)cc2)[C@H]2c3cc(C(=O)N(C)C)n(Cc4ccccn4)c3C[C@H]2CN1C(=O)c1ccccc1    1.08
O=S(=O)(NCCCO)c1ccc(Br)cc1    0.309
CN(C)CCCC[C@@H]1NC(=O)[C@H]2C[C@@H](C(=O)NCCCCCNC(=O)CS)[C@@H](c3ccc(O)cc3)N2C1=O    -0.53
CN1C(=O)C2C=CC(C(O)C3=C[C@H]4C[C@@H](C3)C4(C)C)N(Nc3ccc([N+](=O)[O-])cc3[N+](=O)[O-])C2C1=O (some centres not stated)    1.28
CCCCN1CC=CC23O[C@@H]4/C=C\CCCOC(=O)C4[C@H]2C(=O)N(C(C)CO)[C@@H]3C1=O (some centres not stated)    -0.969

**Q:** Look up composite z-score of O=C1OCCC=C[C@H]2OC34C=CCN(c5ccc6ccccc6c5)C(=O)[C@H]3N(CCCCCCO)C(=O)[C@@H]4C12 (some centres not stated) and report it.
**A:** -0.817

**Q:** Look up composite z-score of O=C1O[C@@H](c2ccccc2)[C@@H](c2ccccc2)N2[C@@H](c3ccc(O)cc3)[C@]3(C(=O)Nc4ccc(C#CCCO)cc43)[C@@H](C(=O)O)[C@H]12 and report it.
**A:** -0.2

====

# procedure-details: probe aLefty1 binding on compound microarray – biochemical, small-molecule microarray, 635/667 nm fluorescence, primary screen (AID 1153);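 note: score merges spot fluorescence with signal-to-noise ratio from the scanned slide images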
# run-conditions: higher = more signal
Outcome label depends on composite z-score relative to 0.1: at/above gives true, below gives false.

O=C1O[C@@H](c2ccccc2)[C@@H](c2ccccc2)N2[C@@H](c3ccc(O)cc3)[C@]3(C(=O)Nc4ccccc43)[C@@H](C(=O)N3CCCCCCC3)[C@H]12    true
[N-]=[N+]=NCc1ccccc1[C@H]1OC(c2ccc(OCCCO)cc2)=N[C@@]1(Cc1ccccc1)C(=O)NCC(O)CO (some centres not stated)    true
CC(C)[C@H]1COC(=O)N1C(=O)[C@H]1[C@@H](c2ccccc2)N(c2ccccc2)O[C@@H]1C    false
Cc1ccc(N2C(=O)c3ccccc3[C@@H](C(=O)NC(C)C)[C@@H]2c2ccc(CO)cc2)nc1    false
CCOC1=C2C(c3ccc(C)cc3)N(S(=O)(=O)c3ccc(C)cc3)CC2n2c(=O)n(-c3ccccc3)c(=O)n2C1 (configuration not stated)    true
O=C1OCCC=C[C@H]2OC34C=CCN(CCN5CCOCC5)C(=O)[C@H]3N(CCO)C(=O)[C@@H]4C12 (some centres not stated)    false

From here, focus on the item given below.
**Q:** Identify whether the reported composite z-score of the following compound is 0.1 or greater: COC(=O)[C@@]1(Cc2ccc(OC)cc2)[C@H]2c3cc(C(=O)N4CCCC4)n(C[C@H](O)CO)c3C[C@H]2CN1C(=O)c1ccccc1
**A:** true

====

# procedure-details: small molecules captured by biotinylated probe aFGF2 – biochemical, small-molecule microarray, fluorescence 635/667, stem cell growth factor project, primary screen (AID 1067);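 note: measures binding of biotinylated aFGF2 protein to printed compounds on slides; z-score merges feature fluorescence and signal-to-noise across triplicate slides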
# run-conditions: higher = more signal
Outcome label depends on composite z-score relative to -0.006: at/above gives condition met, below gives condition not met.

Some entries whose results are on file:
COc1ccc([Si](C)(C)[C@@H]2[C@@H](CCn3cc([C@H](O)c4ccccc4)nn3)O[C@]3(C(=O)N(C)c4ccccc43)[C@H]2C)cc1    condition not met
O=C1C2C=CC(C(O)c3ccc(-c4ccccc4)s3)N(Nc3ccccc3F)C2C(=O)N1c1ccccc1 (centres undefined)    condition met
C=CCNC(=O)[C@@H]1[C@H]2C(=O)O[C@H](c3ccccc3)[C@H](c3ccccc3)N2[C@H](c2ccccc2OCCO)[C@@]12C(=O)N(C(=O)OCCOC)c1ccc(C#CCC(C(=O)OC)C(=O)OC)cc12    condition met
COCC1C2CC[C@H]3C(OCc4ccc(F)cc4C(F)(F)F)OC[C@]4(C)[C@H]3C2=C(CN4C(=O)OC(C)(C)C)[C@H](C)C1COC (some centres undefined)    condition met
O=C1OCCC=C[C@H]2OC34C=CCN(CCN5CCOCC5)C(=O)[C@H]3N(CCO)C(=O)[C@@H]4C12 (some centres undefined)    condition not met
O[C@@H](Cc1ccccc1)[C@@H](/C=C/c1ccccc1)NCc1ccccc1Br    condition not met
CCOC(=O)C1=CC[C@@H](c2cccc(Cl)c2)N(S(=O)(=O)c2ccc(C)cc2)[C@H]1c1ccc(C#N)cc1    condition met
C=CCOC(=O)[C@@H]1[C@H]2C(=O)O[C@H](c3ccccc3)[C@H](c3ccccc3)N2[C@H](c2ccc(OCCOC(=O)[C@H]3C[C@H]4C(=O)N[C@@H](Cc5ccccc5)C(=O)N4[C@H]3c3ccc(O)cc3)cc2)[C@@]12C(=O)Nc1ccc(I)cc12    condition not met

From here, focus on the item given below.
**Q:** Identify whether the reported composite z-score of the following molecule is -0.006 or greater: C=C(CCCC)C(=O)CC[C@H](OC(=O)c1ccccc1-c1ccccc1C(=O)O)c1ccc(CO)o1
**A:** condition not met

====

# procedure-details: viability profiling in MM1S myeloma cells – cell-based, resazurin fluorescence, basal, 24 h, PK04 Diversity Set, profiling panel (AID 1174);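 note: MM1S multiple myeloma cell line; test concentration not given here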
# run-conditions: higher = more signal, called active from +8 up or from −8 down
Reported z-score by item:
Answer using only a numeral; do not append any unit.

Observe how each entry below is paired with its result.
C=CCC(OC(C)=O)[C@@H]1[C@@H](N(Cc2ccc(-c3cccc(C(F)(F)F)c3)o2)C(=O)c2ccc(C)cc2)c2cc(OCCCO)ccc2N1C(=O)c1ccc2ccccc2n1 (some centres undefined)    0.0003
CC1CC/C=C\[C@H]2OC34C=CCN(Cn5nnc6ccccc65)C(=O)[C@H]3N(CCCO)C(=O)[C@@H]4C2C(=O)O1 (some centres undefined)    0.502
C=C[C@@H](C)[C@@H](OC(=O)Nc1ccc(OC)cc1)c1ccc(O)c2ccccc12    -5.02

**Q:** Look up z-score of COCCOC(=O)N1C(=O)[C@@]2(c3cc(C#Cc4ccc(OC)cc4)ccc31)[C@H](c1ccc(OCCO)cc1)N1[C@H](c3ccccc3)[C@H](c3ccccc3)OC(=O)[C@H]1[C@@H]2C(=O)N1CCc2cc(OC)c(OC)cc2C1 and report it.
**A:** 1.02

====

# procedure-details: probe aShh binding to arrayed compounds – biochemical, biotinylated probe, 635/667 nm fluorescence, primary screen (AID 1114);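 note: probe is biotin-labelled aShh protein from a stem cell growth factor screen; measures binding of labelled protein to compounds printed on the slide; score merges feature fluorescence at 667 nm with signal-to-noise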
# run-conditions: small-molecule microarray, higher = more signal
Reported composite z-score by item:
Answer using only a numeral; do not append any unit.

CCCNC(=O)[C@@]1(C)c2ccccc2C(=O)N(Cc2ccc(OC(F)(F)F)cc2)[C@H]1c1ccc(CO)cc1    -0.222
CCCNC(=O)[C@@]1(C)c2ccccc2C(=O)N(Cc2cc(C(F)(F)F)cc(C(F)(F)F)c2)[C@H]1c1ccc(CO)cc1    -0.297
O=C1O[C@H](c2ccccc2)[C@H](c2ccccc2)N2[C@H]1[C@@H](C(=O)NC[C@H](O)c1ccccc1)[C@]1(C(=O)Nc3ccc(C#CC4=CCCCC4)cc31)[C@H]2c1ccc(O)cc1    -0.0146
[N-]=[N+]=NCc1ccccc1C[C@]1(C(=O)NCc2ccccc2)COC(c2ccc(OCCCO)cc2)=N1    0.0483
[N-]=[N+]=NCc1ccccc1C[C@]1(C(=O)N2CCOCC2)N=C(c2ccc(OCCCO)cc2)O[C@H]1c1ccccc1    0.207

**Q:** Look up composite z-score of C=C(C(=O)CC[C@@H](OC(=O)c1cccnc1)c1ccc(OCCO)cc1)C(C)C and report it.
**A:** -0.0035

**Q:** Look up composite z-score of COC(=O)c1c2oc(c1C(=O)OC)C(=O)N[C@H](Cc1ccccc1)Cn1nncc1C1(CCCCC1)NC(=O)N[C@H](CO)CC2 and report it.
**A:** -0.138

**Q:** Look up composite z-score of [N-]=[N+]=NCc1ccccc1C[C@]1(C(=O)NCCN2CCOCC2)N=C(c2ccc(OCCCO)cc2)O[C@H]1c1ccccc1CN=[N+]=[N-] and report it.
**A:** -0.146

**Q:** Look up composite z-score of CCOC(=O)C[C@H]1[C@H](OC(=O)c2cc3ccccc3oc2=O)[C@@H](NC(=O)c2ccc3ccccc3c2)c2cc(OCCCO)ccc2N1C(=O)c1ccccc1 and report it.
**A:** 0.214

**Q:** Look up composite z-score of O=C(CS)NCCCCCCNC(=O)[C@H]1C[C@H]2C(=O)N3CCC[C@H]3C(=O)N2[C@H]1c1ccc(O)cc1 and report it.
**A:** -0.0011
